target: Calmodulin-1 (Homo sapiens) (UniProt P0DP23); experiment: calcium-bound CALM1 binders on microarrays, profiling panel, artefact control for SMM control-protein annotation, biochemical, small-molecule microarray, Cy5-labelled CALM1, plus calcium (AID 1112); details: Cy5-CALM1 binding fluorescence, higher = more signal;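 note: score merges spot fluorescence with signal to noise from triplicate slides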
composite z-score values, listed per item
Reported endpoint: composite z-score

INSERT INTO results (structure_smiles, assay_system, reported_endpoint, result_value) VALUES
  ('CCc1cc2c(nc1CC)CCN(CCC(C)=NO[C@H](C)c1cn([C@H](CO)Cc3ccccc3)nn1)C2', 'Calmodulin-1 (Homo sapiens) (UniProt P0DP23)', 'composite z-score', -0.439),
  ('COC(=O)[C@@H]1CC[C@H](C)[C@@H](c2ccc(C)cc2)N1C(=O)c1ccc(C=NOC[C@@H](C)[C@H](OCc2ccccc2)C(C)C)cc1', 'Calmodulin-1 (Homo sapiens) (UniProt P0DP23)', 'composite z-score', -0.607),
  ('O=C1[C@H]2[C@H]3[C@H](O)[C@H](O)CC(=NOC[C@@H](O)COCc4ccco4)[C@H]3CC[C@H]2C(=O)N1c1ccc(F)cc1F', 'Calmodulin-1 (Homo sapiens) (UniProt P0DP23)', 'composite z-score', -1.07),
  ('CC(C)=NOC[C@@H](C)[C@H](OCc1ccccc1)C(C)C', 'Calmodulin-1 (Homo sapiens) (UniProt P0DP23)', 'composite z-score', -0.285),
  ('C#CCCCON=C1C[C@@H](O)[C@@H](O)[C@@H]2[C@@H]3C(=O)N(C(C)(C)C)C(=O)[C@@H]3CC[C@@H]12', 'Calmodulin-1 (Homo sapiens) (UniProt P0DP23)', 'composite z-score', -0.165);
